- experimental_protocol: NCI Yeast Anticancer Drug Screen. Data for the bub3 strain (AID 167)
- run_conditions: S. cerevisiae bub3 mutant strain, at 50.0 µM (retest, dose inferred, filed as 5.0), hits give high values
The panel holds about 79,000 compounds, 15% with a hit somewhere; the sample as a whole holds those more often.
measure: growth inhibition (%)

compound: CCC(c1cccc(O)c1)C(CC)c1cccc(O)c1 (stereo not given)
reported_value: 88
--
compound: NCCSC1(O)C(=O)c2ccccc2-c2ccccc21 (stereo not given)
reported_value: 99
--
compound: Cc1ccnc(NC(c2ccccc2)c2ccc3cccnc3c2O)c1 (stereo not given)
reported_value: 96
--
compound: Clc1ccc(-c2nc3ccc(Cl)cc3[nH]2)cc1
reported_value: 96
--
compound: Cc1ccc([PH+](CC[PH+](c2ccccc2)c2ccccc2)c2ccc(C)cc2)cc1.Cc1ccc([PH+](CC[PH+](c2ccccc2)c2ccccc2)c2ccc(C)cc2)cc1.[Pt]
reported_value: 94

----------
- experimental_protocol: NCI Yeast Anticancer Drug Screen. Data for the mlh1 rad18 strain (AID 175)
- run_conditions: S. cerevisiae mlh1 rad18 strain growth inhibition; at 50.0 µM (retest, dose inferred, filed as 5.0)
This is part of a sample that, as a whole, favours compounds with a hit. Of some 79,000 tested, about 15% had one in any assay. The source made the active and inactive calls. No stated cut-off is given here; in the data, active means growth inhibition above about 70%; inactive means the rest.
Outcomes: yes for active, no for inactive

molecule: Nc1ccc(-c2nc3ccccc3s2)cc1Br
class_name: yes
--
molecule: O=c1[nH]c2c([N+](=O)[O-])cc(Cl)cc2nc1/C=C(\O)c1ccccc1
class_name: yes
--
molecule: Nc1ccccc1SCc1csc(-c2ccc(Cl)cc2)n1
class_name: yes
--
molecule: CC(=O)c1c(C)n(C)c2c1nnc1ccccc12
class_name: no
--
molecule: CCCCCCCCC(=O)NCCN(CCN)C(=O)CCCCCCCC
class_name: yes
--
molecule: CC(C)(C)C(=O)/C=C/c1ccc2ccccc2n1
class_name: no
--
molecule: COc1cc(C(=O)NC(CCC(=O)O)C(=O)O)ccc1N(C)Cc1cnc2nc(N)nc(N)c2n1 (stereo unspecified)
class_name: no
--
molecule: CN(C)c1ccc2c(c1)Cc1cc(NC(=O)/C=C/C(=O)O)ccc1-2
class_name: no
--
molecule: NC(=S)N/N=C/c1ccc(Cl)s1
class_name: no
--
molecule: NC(=O)/C(=N\NC(=O)c1cc2ccccc2cc1O)C1C(=O)N(c2ccccc2)N=C1N (stereo unspecified)
class_name: no
--
molecule: Cc1cc(N(CCC#N)CCC#N)ccc1/C(N=Nc1cccc([N+](=O)[O-])c1)=N/NC(=O)c1cc(Cl)ccc1O
class_name: no

----------
- experimental_protocol: NCI Yeast Anticancer Drug Screen. Data for the cln2 rad14 strain (AID 165);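 also: 0% = growth equal to vehicle treated cultures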
- run_conditions: S. cerevisiae cln2 rad14 strain, at 50.0 µM, hits give high values
This is part of a sample that, as a whole, favours compounds with a hit. Of some 79,000 tested, about 15% had one in any assay.
measure: growth inhibition (%)

molecule: O=C(O)c1ccc(/C=C2\COc3ccccc3C2=O)cc1
measure: growth inhibition
reported_value: 52.8

molecule: CN(C)C(=O)c1ccc(SC(=S)NCc2ccccc2)cc1
measure: growth inhibition
reported_value: 96.2

molecule: N#CC(C#N)C(C#N)c1ccc(Cl)c(Cl)c1 (stereo unspecified)
measure: growth inhibition
reported_value: 99.4

molecule: CCCCCCCNCCCCCC
measure: growth inhibition
reported_value: 68.3

molecule: CCc1nc(N)nc(N)c1-c1ccc(NCCN)c([N+](=O)[O-])c1
measure: growth inhibition
reported_value: 98.5

molecule: CSc1nc(NN)cc(-c2ccccc2)n1
measure: growth inhibition
reported_value: 3.1

molecule: COc1cc(C(c2cc3c(cc2O)OCO3)N2CCCCC2)cc(OC)c1OC (stereo unspecified)
measure: growth inhibition
reported_value: 67.5

molecule: O=C1C2(Cl)C(Cl)=C(Cl)C1(Cl)C1(Cl)C(Cl)=C(Cl)C(=O)C21Cl (stereo unspecified)
measure: growth inhibition
reported_value: 76.4

molecule: CCN(CC)CCOc1ccc(-c2nc3cc(Cl)ccc3s2)cc1
measure: growth inhibition
reported_value: 48

molecule: CCCCCCCCOc1ccc(/C=C/C(C)=N/NC(N)=NC)cc1OC
measure: growth inhibition
reported_value: 98.3

molecule: COc1cccc(CC2N(S(=O)(=O)c3ccc(C)cc3)CCC23C(=O)Nc2ccccc23)c1OC (stereo unspecified)
measure: growth inhibition
reported_value: 39

----------
- experimental_protocol: NCI Yeast Anticancer Drug Screen. Data for the sgs1 mgt1 strain (AID 161);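 also: 0% = growth of cultures given vehicle only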
- run_conditions: S. cerevisiae sgs1 mgt1 strain, at 50.0 µM, hits give high values
About 79,000 compounds went through this panel and 15% of them were active in at least one assay; those are over-represented in the sample as a whole.
Cut-off 70% on growth inhibition, inclusive. At or above means class 1; below means class 0.

compound: c1ccc(CSc2nnc3c4ccccc4c4ccccc4c3n2)cc1
class_name: class 0

compound: O=c1ccccc(Br)c1O
class_name: class 1

compound: N#CSCc1ccc(Cl)c(CSC#N)c1
class_name: class 1

compound: CCCCCc1ccc2cc(C(=O)O)[nH]c2c1
class_name: class 1

compound: O=C(Nc1ccc(F)cc1)ON=C1CCCCC1
class_name: class 1

compound: CC(=O)NC1=C(Oc2ccccc2)C(=O)c2ccccc2C1=O
class_name: class 1

compound: CCOCCC(=O)NNc1ccccc1
class_name: class 0

compound: O=C1c2ccccc2C(=O)c2sccc21
class_name: class 1

compound: O=C(c1ccccc1)C1OC1c1ccccc1Cl (configuration not stated)
class_name: class 0

compound: COC(=O)c1[nH]c(=O)c(C#N)c(C(=O)OC)c1C(=O)c1ccc2ccccc2c1
class_name: class 0

compound: Cc1ccc(C)c(N2C(=O)C(=O)C(c3nc4ccccc4o3)/C(=N\NC(=O)c3ccccc3O)C2=O)c1 (configuration not stated)
class_name: class 0

compound: CC(CO)(Nc1ccc([N+](=O)[O-])cc1[N+](=O)[O-])C(=O)O (configuration not stated)
class_name: class 1

----------
- experimental_protocol: NCI Yeast Anticancer Drug Screen. Data for the mlh1 rad18 strain (AID 175)
- run_conditions: S. cerevisiae mlh1 rad18 strain growth inhibition; at 50.0 µM
About 79,000 compounds went through this panel and 15% of them were active in at least one assay; those are over-represented in the sample as a whole. Calls of active or inactive are those of the source. Rule as the data show it: active = growth inhibition above about 70%; inactive = the rest.
Outcomes: YES for active, NO for inactive

compound: Cn1c(N)c(NC(=O)CCl)c(=O)n(C)c1=O
class_name: NO
--
compound: CCC1(C)CCC2(C)C(CCC3C4(C)CCCC32OC4=O)C1 (stereo unspecified)
class_name: YES
--
compound: COc1cc(/C=C(/C)C[N+](=O)[O-])ccc1O
class_name: YES
--
compound: c1ccc(-c2cnc3nc4ccccc4nc3n2)cc1
class_name: YES
--
compound: Cc1ccc(NC(=O)c2cc3ccccc3c(N=Nc3cc(S(=O)(=O)O)ccc3O)c2O)c(C)c1
class_name: YES
--
compound: CSC(=S)NN=C1CCCCC1
class_name: YES
--
compound: C=C1C(=O)O[C@H]2[C@H](OC(C)=O)[C@@H](C)CCC/C(C)=C/CC[C@@]3(C)O[C@@H]3C[C@@H]12
class_name: YES
--
compound: O=[N+]([O-])c1ccc(N/N=C/COCCO)c([N+](=O)[O-])c1
class_name: NO
--
compound: O=C(O)c1ccc(/C=C2\COc3ccccc3C2=O)cc1
class_name: YES
--
compound: COc1ccc(NC(=O)OC(C)C)c(OC)c1
class_name: NO
--
compound: C/C=c1/[nH]c(=O)/c(=C\c2ccccc2)[nH]c1=O
class_name: NO

----------
- experimental_protocol: NCI Yeast Anticancer Drug Screen. Data for the bub3 strain (AID 167)
- run_conditions: S. cerevisiae bub3 mutant strain, at 5.0 µM (retest, dose inferred, filed as 0.5)
The panel holds about 79,000 compounds, 15% with a hit somewhere; the sample as a whole holds those more often. Active and inactive are the calls of the source. No stated cut-off is given here; in the data, active means growth inhibition above about 70%; inactive means the rest.
Outcomes: 1 (active), 0 (inactive)

molecule: CCCCCCCCOc1ccc(/C=C/C(C)=N/NC(N)=NC)cc1OC
class_name: 1

molecule: O=[N+]([O-])c1ccc(N/N=C/COCCO)c([N+](=O)[O-])c1
class_name: 0

molecule: O=C1C=CC(=O)c2c(O)c(N3CCN(CCO)CC3)c(Cl)c(O)c21
class_name: 0

molecule: CCCCCCCCCCCCCC(=O)OCC(O)CO (stereo unspecified)
class_name: 0

molecule: OCc1cccc2c1Oc1ccccc1S2
class_name: 0

molecule: CC(C)C(OC(=O)c1ccc(NCc2cc(O)ccc2O)cc1)C(C)C
class_name: 0

----------
- experimental_protocol: NCI Yeast Anticancer Drug Screen. Data for the bub3 strain (AID 167)
- run_conditions: S. cerevisiae bub3 mutant strain, at 50.0 µM
Compounds without any hit were thinned out: in the full panel of roughly 79,000, 15% have a hit. Activity calls are given as the source filed them. No stated cut-off is given here; in the data, active means growth inhibition above about 70%; inactive means the rest.
Outcomes: true (1) for active, false (0) for inactive

molecule: O=C(O)C(O)C(O)C(O)C(O)c1nc2ccccc2s1 (stereo unspecified)
class_name: true (1)
--
molecule: O=c1c(S(=O)(=O)Oc2ccccc2)coc2cc(F)ccc12
class_name: true (1)
--
molecule: O=[N+]([O-])c1ccc(C2=CSc3ccccc3N2)cc1
class_name: true (1)
--
molecule: COc1ccc(C2CC(CO)ON2c2ccccc2)cc1 (stereo unspecified)
class_name: true (1)
--
molecule: C/C(CCSCc1ccccc1)=N/NC(N)=S
class_name: false (0)
--
molecule: N#[N+]c1ccc2c(S(=O)(=O)Oc3ccc(C(=O)c4ccccc4)c(OS(=O)(=O)c4cccc5c([O-])c([N+]#N)ccc45)c3)cccc2c1[O-]
class_name: true (1)
--
molecule: CC(=O)/C=C1\C(=O)Nc2ccccc21
class_name: true (1)
--
molecule: CN(C)c1ccc2c(c1)Cc1cc(NC(=O)/C=C/C(=O)O)ccc1-2
class_name: false (0)
--
molecule: Cn1c2c(c3ccccc31)CCN1C[C@@H]3CCCC[C@H]3C[C@@H]21
class_name: false (0)
--
molecule: O=C(Nc1c(Cl)cccc1Cl)OCCOc1ccc(Cl)cc1Cl
class_name: true (1)
--
molecule: Oc1c(Br)c(Br)c(O)c(Br)c1Br
class_name: true (1)
